// provenance: ChEMBL document CHEMBL6153090

Assay explanation: Activation of GIRK channel (unknown origin) assessed as increase in fluorescence analysis
Set-up: species or system Homo sapiens
Quantity measured: EC50 (µM)

[[record]]
query_smiles = "Cc1c(C(=O)c2cccc3ccccc23)c2cccc3c2n1[C@H](CN1CCOCC1)CO3"
experimental_result = 13.1


* * *

Subject of test: Sodium-dependent noradrenaline transporter (Homo sapiens, UniProt P23975)
Sequence (P23975 whole entry): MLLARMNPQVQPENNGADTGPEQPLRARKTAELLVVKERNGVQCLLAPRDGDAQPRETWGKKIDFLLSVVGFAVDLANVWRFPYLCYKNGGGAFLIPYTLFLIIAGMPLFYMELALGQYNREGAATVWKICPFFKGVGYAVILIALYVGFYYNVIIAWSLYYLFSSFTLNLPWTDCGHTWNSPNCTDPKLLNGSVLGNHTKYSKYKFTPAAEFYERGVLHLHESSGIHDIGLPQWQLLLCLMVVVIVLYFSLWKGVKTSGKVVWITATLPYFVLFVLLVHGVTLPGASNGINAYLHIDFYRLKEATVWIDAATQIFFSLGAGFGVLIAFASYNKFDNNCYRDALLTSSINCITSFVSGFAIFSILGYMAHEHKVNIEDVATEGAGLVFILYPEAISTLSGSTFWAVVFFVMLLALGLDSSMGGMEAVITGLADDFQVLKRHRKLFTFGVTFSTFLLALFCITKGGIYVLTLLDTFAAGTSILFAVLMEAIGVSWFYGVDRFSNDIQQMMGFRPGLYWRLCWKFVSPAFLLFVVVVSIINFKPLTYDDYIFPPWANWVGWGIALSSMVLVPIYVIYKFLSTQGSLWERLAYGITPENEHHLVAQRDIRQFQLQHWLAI
Quantity measured: Ki (µM)

[[record]]
query_smiles = "C=C(C)[C@@H]1CCC(C)=C[C@H]1c1c(O)cc(CCCCC)c2c1OCC2"
units = "µM"
experimental_result = 5.7


* * *

Subject of test: Kappa-type opioid receptor (Homo sapiens)
Sequence (P41145 whole entry): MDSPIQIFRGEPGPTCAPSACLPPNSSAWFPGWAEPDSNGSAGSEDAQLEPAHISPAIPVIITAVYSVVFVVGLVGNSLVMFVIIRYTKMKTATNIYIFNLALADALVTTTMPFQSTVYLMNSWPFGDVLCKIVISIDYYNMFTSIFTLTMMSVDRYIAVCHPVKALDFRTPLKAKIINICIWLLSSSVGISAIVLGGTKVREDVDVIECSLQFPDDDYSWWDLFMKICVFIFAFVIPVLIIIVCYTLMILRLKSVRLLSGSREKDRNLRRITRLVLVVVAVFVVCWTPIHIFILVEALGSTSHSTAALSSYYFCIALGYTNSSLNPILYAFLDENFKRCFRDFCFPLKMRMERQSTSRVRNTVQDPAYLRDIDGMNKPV
pKi: −log10 of the molar value.
Quantity measured: pKi

[[record]]
query_smiles = "C=C(C)[C@@H]1CCC(C)=C[C@H]1c1c(O)cc(CCCCC)cc1OCCCCCCCCCCCCOc1cc(CCCCC)cc(O)c1[C@@H]1C=C(C)CC[C@H]1C(=C)C"
experimental_result = 5.77


* * *

Let's look at some compounds and their measured pKi.
Subject of test: Sigma non-opioid intracellular receptor 1 (Homo sapiens, UniProt Q99720)
Sequence (Q99720 whole entry): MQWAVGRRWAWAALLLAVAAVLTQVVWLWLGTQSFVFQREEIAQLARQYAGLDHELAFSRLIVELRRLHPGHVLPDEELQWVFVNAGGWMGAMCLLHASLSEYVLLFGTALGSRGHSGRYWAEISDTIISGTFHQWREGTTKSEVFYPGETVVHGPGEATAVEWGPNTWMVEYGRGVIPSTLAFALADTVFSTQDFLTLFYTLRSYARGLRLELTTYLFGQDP
Assay explanation: Displacement of [3H]-pentazocine from human Sigma 1 receptor at 10 uM by cell-based radioligand binding assay
pKi: −log10 of the molar value.
Quantity measured: pKi

[[record]]
query_smiles = "C=C(C)[C@@H]1CCC(C)=C[C@H]1c1c(O)cc(CCCCC)c2c1OCC2"
experimental_result = 5.74

[[record]]
query_smiles = "C=C(C)[C@H]1CCC(C)=C[C@@H]1c1c(O)cc(CCCCC)cc1OCCCCCCCCOc1cc(CCCCC)cc(O)c1[C@@H]1C=C(C)CC[C@H]1C(=C)C"
experimental_result = 5.72


* * *

Subject of test: Translocator protein (Homo sapiens)
Sequence (P30536 whole entry): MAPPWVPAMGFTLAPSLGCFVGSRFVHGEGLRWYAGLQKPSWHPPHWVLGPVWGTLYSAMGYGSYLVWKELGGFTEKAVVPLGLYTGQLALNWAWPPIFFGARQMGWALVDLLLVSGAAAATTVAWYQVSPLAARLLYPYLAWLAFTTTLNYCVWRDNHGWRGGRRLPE
Quantity measured: Ki

[[record]]
query_smiles = "C=C(C)[C@@H]1CCC(C)=C[C@H]1c1c(OC)cc(CCCCC)cc1OCCCOc1cc(CCCCC)cc(OC)c1[C@@H]1C=C(C)CC[C@H]1C(=C)C"
subject_of_test = "Translocator protein (Homo sapiens)"
experimental_result = "2700 nM"

[[record]]
query_smiles = "C=C(C)[C@H]1CCC(C)=C[C@@H]1c1c(OC)cc(CCCCC)cc1OCCCCCCCCCCCCOc1cc(CCCCC)cc(OC)c1[C@H]1C=C(C)CC[C@@H]1C(=C)C"
subject_of_test = "Translocator protein (Homo sapiens)"
experimental_result = "900 nM"


* * *

Let's look at some compounds and their measured EC50.
Subject of test: UniProt P21554
Sequence (P21554 whole entry): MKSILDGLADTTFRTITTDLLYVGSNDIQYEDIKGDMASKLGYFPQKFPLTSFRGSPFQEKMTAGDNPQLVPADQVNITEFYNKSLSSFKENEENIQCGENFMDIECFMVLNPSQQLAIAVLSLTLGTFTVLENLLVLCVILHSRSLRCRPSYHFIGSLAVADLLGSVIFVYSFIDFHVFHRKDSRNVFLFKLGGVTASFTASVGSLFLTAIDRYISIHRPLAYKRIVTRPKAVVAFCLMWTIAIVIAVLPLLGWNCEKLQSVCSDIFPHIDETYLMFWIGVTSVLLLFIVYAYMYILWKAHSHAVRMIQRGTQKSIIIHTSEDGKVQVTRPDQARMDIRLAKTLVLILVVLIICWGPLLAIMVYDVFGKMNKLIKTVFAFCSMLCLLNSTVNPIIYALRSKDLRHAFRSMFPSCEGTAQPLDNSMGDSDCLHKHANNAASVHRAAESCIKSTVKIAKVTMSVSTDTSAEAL
Assay explanation: Agonist activity at CB1 receptor in human MDA-MB-231 cells by FLIPR assay
Quantity measured: EC50 (µM)

[[record]]
query_smiles = "C=C(C)[C@@H]1CCC(C)=C[C@H]1c1c(OC)cc(CCCCC)cc1OCCCOc1cc(CCCCC)cc(OC)c1[C@@H]1C=C(C)CC[C@H]1C(=C)C"
subject_of_test = "UniProt P21554"
experimental_result = 42.2

[[record]]
query_smiles = "C=C(C)[C@@H]1CCC(C)=C[C@H]1c1c(OC)cc(CCCCC)cc1OCCCCCOc1cc(CCCCC)cc(OC)c1[C@@H]1C=C(C)CC[C@H]1C(=C)C"
subject_of_test = "UniProt P21554"
experimental_result = 40


* * *

Let's look at some compounds and their measured pKi.
Subject of test: Sigma intracellular receptor 2 (Homo sapiens)
Sequence (Q5BJF2 whole entry): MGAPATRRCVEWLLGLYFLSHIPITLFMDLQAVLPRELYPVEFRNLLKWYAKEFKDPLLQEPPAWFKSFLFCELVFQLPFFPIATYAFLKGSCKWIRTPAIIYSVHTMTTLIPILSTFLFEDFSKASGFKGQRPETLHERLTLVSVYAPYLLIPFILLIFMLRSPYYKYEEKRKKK
Assay explanation: Displacement of [3H]-pentazocine from human Sigma 2 receptor at 10 uM by cell-based radioligand binding assay
pKi: −log10 of the molar value.
Quantity measured: pKi

[[record]]
query_smiles = "C=C(C)[C@H]1CCC(C)=C[C@@H]1c1c(OC)cc(CCCCC)cc1OCCCCCCCOc1cc(CCCCC)cc(OC)c1[C@H]1C=C(C)CC[C@@H]1C(=C)C"
experimental_result = 5.33

[[record]]
query_smiles = "C=C(C)[C@H]1CCC(C)=C[C@@H]1c1c(O)cc(CCCCC)cc1OCCOc1cc(CCCCC)cc(O)c1[C@@H]1C=C(C)CC[C@H]1C(=C)C"
experimental_result = 6.10

[[record]]
query_smiles = "C=C(C)[C@@H]1CCC(C)=C[C@H]1c1c(OC)cc(CCCCC)cc1OCCCCCCCCOc1cc(CCCCC)cc(OC)c1[C@@H]1C=C(C)CC[C@H]1C(=C)C"
experimental_result = 5.57

[[record]]
query_smiles = "C=C(C)[C@@H]1CCC(C)=C[C@H]1c1c(OC)cc(CCCCC)cc1OCCOCCOCCOCCOc1cc(CCCCC)cc(OC)c1[C@@H]1C=C(C)CC[C@H]1C(=C)C"
experimental_result = 5.09

[[record]]
query_smiles = "C=C(C)[C@H]1CCC(C)=C[C@@H]1c1c(O)cc(CCCCC)cc1OCCCCCCOc1cc(CCCCC)cc(O)c1[C@@H]1C=C(C)CC[C@H]1C(=C)C"
experimental_result = 6.15

[[record]]
query_smiles = "C=C(C)[C@@H]1CCC(C)=C[C@H]1c1c(OC)cc(CCCCC)cc1OCCCOc1cc(CCCCC)cc(OC)c1[C@@H]1C=C(C)CC[C@H]1C(=C)C"
experimental_result = 5.47

[[record]]
query_smiles = "C=C(C)[C@H]1CCC(C)=C[C@@H]1c1c(O)cc(CCCCC)cc1OCCCCCOc1cc(CCCCC)cc(O)c1[C@@H]1C=C(C)CC[C@H]1C(=C)C"
experimental_result = 5.16

[[record]]
query_smiles = "C=C(C)[C@@H]1CCC(C)=C[C@H]1c1c(OC)cc(CCCCC)cc1OCCCCCCOc1cc(CCCCC)cc(OC)c1[C@@H]1C=C(C)CC[C@H]1C(=C)C"
experimental_result = 5.26

[[record]]
query_smiles = "C=C(C)[C@H]1CCC(C)=C[C@@H]1c1c(O)cc(CCCCC)cc1OCCCCCCCCOc1cc(CCCCC)cc(O)c1[C@@H]1C=C(C)CC[C@H]1C(=C)C"
experimental_result = 5.72

[[record]]
query_smiles = "C=C(C)[C@H]1CCC(C)=C[C@@H]1c1c(O)cc(CCCCC)cc1OCCCCOc1cc(CCCCC)cc(O)c1[C@@H]1C=C(C)CC[C@H]1C(=C)C"
experimental_result = 5.26


* * *

Subject of test: D(2) dopamine receptor (Homo sapiens)
Sequence (P14416 whole entry): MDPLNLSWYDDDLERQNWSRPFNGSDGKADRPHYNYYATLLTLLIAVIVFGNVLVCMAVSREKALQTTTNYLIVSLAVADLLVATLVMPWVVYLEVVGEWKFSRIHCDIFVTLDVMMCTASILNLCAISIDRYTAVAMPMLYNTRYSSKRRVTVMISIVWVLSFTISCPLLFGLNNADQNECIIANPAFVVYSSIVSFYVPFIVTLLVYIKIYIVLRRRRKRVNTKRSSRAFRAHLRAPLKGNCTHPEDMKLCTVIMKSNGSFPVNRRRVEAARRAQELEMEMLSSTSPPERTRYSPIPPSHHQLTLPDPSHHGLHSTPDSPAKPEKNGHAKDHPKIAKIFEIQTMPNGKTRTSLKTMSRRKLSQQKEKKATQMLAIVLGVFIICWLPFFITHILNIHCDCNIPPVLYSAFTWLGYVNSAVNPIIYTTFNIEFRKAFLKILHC
Assay explanation: Displacement of [3H]-N-Methylspiperone from human D2 receptor at 10 uM by cell-based radioligand binding assay
pKi: −log10 of the molar value.
Let's look at some compounds and their measured pKi.
Quantity measured: pKi

[[record]]
query_smiles = "C=C(C)[C@@H]1CCC(C)=C[C@H]1c1c(O)cc(CCCCC)cc1OCCCCCCCOc1cc(CCCCC)cc(O)c1[C@@H]1C=C(C)CC[C@H]1C(=C)C"
relation_qualifier = "="
experimental_result = 6.22

[[record]]
query_smiles = "C=C(C)[C@@H]1CCC(C)=C[C@H]1c1c(O)cc(CCCCC)c2c1OCC2"
relation_qualifier = "="
experimental_result = 6.40

[[record]]
query_smiles = "C=C(C)[C@@H]1CCC(C)=C[C@H]1c1c(O)cc(CCCCC)cc1OCCCCCCCCCCCCOc1cc(CCCCC)cc(O)c1[C@@H]1C=C(C)CC[C@H]1C(=C)C"
relation_qualifier = "<"
experimental_result = 5.00

